molecular target: Tyrosyl-DNA phosphodiesterase 1 (Homo sapiens, UniProt Q9NUW8); test: Inhibition of TDP1 in human MCF7 cells assessed as potentiation of camptothecin-induced cytotoxicity by measuring fold reduction in camptothecin CC50 at 0.5 uM after 72 hrs by MTT assay relative to camptothecin alone; type: cell-based
Sequence (Q9NUW8 whole entry): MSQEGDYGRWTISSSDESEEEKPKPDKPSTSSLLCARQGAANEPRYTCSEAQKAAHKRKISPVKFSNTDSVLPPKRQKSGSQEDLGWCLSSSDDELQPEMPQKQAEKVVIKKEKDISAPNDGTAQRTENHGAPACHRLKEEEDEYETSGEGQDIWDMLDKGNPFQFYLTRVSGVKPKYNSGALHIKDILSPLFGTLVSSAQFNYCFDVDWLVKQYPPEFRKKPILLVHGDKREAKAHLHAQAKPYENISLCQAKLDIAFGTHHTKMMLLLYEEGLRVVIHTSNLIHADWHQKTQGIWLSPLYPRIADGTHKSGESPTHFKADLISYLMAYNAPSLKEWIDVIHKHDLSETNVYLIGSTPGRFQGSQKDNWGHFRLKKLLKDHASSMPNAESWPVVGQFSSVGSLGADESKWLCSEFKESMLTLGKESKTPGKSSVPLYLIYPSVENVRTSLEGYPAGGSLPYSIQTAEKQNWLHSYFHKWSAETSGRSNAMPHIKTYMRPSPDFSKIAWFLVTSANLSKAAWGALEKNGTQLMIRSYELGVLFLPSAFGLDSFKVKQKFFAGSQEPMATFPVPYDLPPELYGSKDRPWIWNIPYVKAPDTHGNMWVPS
Items are presented alongside their recorded fold change (FC).

{"Chemical Smiles": "CC(=O)c1c(O)c(C)c(O)c2c1OC1=CC(=O)/C(=C(/C)Nc3ccc(Br)cc3)C(=O)[C@@]12C", "Result": 1.5}
{"Chemical Smiles": "CC(=O)c1c(O)c(C)c(O)c2c1OC1=CC(=O)/C(=C(/C)Nc3ccc(Cl)cc3)C(=O)[C@@]12C", "Result": 0.51}

Return reported fold change (FC); argument: CC(=O)c1c(O)c(C)c(O)c2c1OC1=CC(=O)/C(=C(/C)Nc3ccccc3)C(=O)[C@@]12C 1.2

Return reported fold change (FC); argument: CC(=O)c1c(O)c(C)c(O)c2c1OC1=CC(=O)/C(=C(/C)Nc3ccccc3)C(=O)[C@]12C 1

Return reported fold change (FC); argument: CC(=O)c1c(O)c(C)c(O)c2c1OC1=CC(=O)/C(=C(/C)Nc3ccc(Cl)cc3)C(=O)[C@]12C 0.35
